Biological target: T1, ZIKV VLP (zika virus like particle, isolate Z1106033) (Zika virus isolate Z1106033 (Suriname, …, UniProt A0A024B7W1 123-794))
T1 construct: also called zika VLP; ZIKV VLPs
measured parameter: EC50

Worked cases, EC50 given:
INSERT INTO results (binder, experimental_value) VALUES
  ('Anti-ZIKV #6 (IgG2c kappa, Clone ZV-67) (antibody, V domains shown) VH: QAQLQQSGTGLARPGASVKLSCKASGYTFTSYGISWVTQRAGQGLEWIGVIYPRSGNTYYNEKFRGKATLTADKSSSSAYMELRGLTAEDSAVYFCARENYGSVYWGQGTTLTVSS VL: DIVMTQSQKFMSTSVGDRVSITCKASQNVGTAVAWYQQKPGQSPKLLIYSASNRYTGVPDRFTGSGSGTDFTLTISNMQSEDLADYFCQQFSSYPYTFGGGTKLEIK', '0.0273 µg/mL'),
  ('Anti-ZIKV #2 (Clone 242-3) (antibody, V domains shown) VH: QAQLEESGGDLVKPEGSLTLTCTASGFSFTDRHYMCWIRQAPGKGLEWIACVYPGSSGSTYYASWARGRFTISKTSSTTVTLRMTSLTAADTATYFCARSSYPDSSGYSYGMDLWGPGTLVTVSS VL: DIVMTQTPASVEAAVGGTVTIKCQASQNINSNLAWYQQKPGQRPKFLMYLTSKLASGVPSRFRGSGSGTQFTLTISDLECADAATYYCQTYYDISNYGYAFGGGTEVVVKG', '0.008 µg/mL');

Ask: State its EC50 for this binder: Anti-ZIKV #5 (Clone 306-2) (antibody, V domains shown) VH: QSLEESGGDLVKPGASLTLTCTASGFDFSDRYYMCWVRQAPGKGLEWIGCIYVGSGDTYYASWAKGRFTISRTSSTTVTLQMTRLTAADTATYFCARHPGTYFTLWGPGTLVTVSS VL: DVVMTQTPSSVSAAVGGTVTINCQASQNIVNNLAWYQQRPGQPPKLLIYDTSTLASGVPSRFKGSGSGTEFTLTISDLECADAATYYCQTYYYYNKIINGFGGGTEVVVKG
Reply: 0.0158 µg/mL

Ask: State its EC50 for this binder: Anti-ZIKV #11 (Clone 11-3) (antibody, V domains shown) VH: QEQLVESGGGLVQPEGSLTITCTGSGFSFSSRFYMCWVRQAPGKGLEWIACIYGGSSGSTYYASWAKGRFTISKTSSTTVTLQISSLTAADTATYFCARGGSTAAAGFNLWGPGTLLTVSS VL: DVVMTQTPASVSATVGGTVTIKCQASEDIYNLLAWYQQKPGQPPKLLIYYASTLASGVPSRFKGSGSGTEFTLTISDLECADAATYYCQCNDYGGTYVPNAFGGGTEVVVKG
Reply: 0.0105 µg/mL

Ask: State its EC50 for this binder: Anti-ZIKV #7 (IgG2a kappa, Clone ZKA-64) (antibody, V domains shown) VH: QVQLVQSGAEVKKPGASVKVSCKASGYTFTGYHIDWVRQARGQGLEWMGRINPNSGGTNYAQKFQGRVTMTRDTSISTAYMQLSRLRSDDSAVYYCARMSSSIWGFDHWGQGTLVTVSS VL: EIVMTQSPATLSVSPGERATLSCRASQSVLINLAWYQQKPGQAPRLLIYGASSRATGIPARFSGSGSGTEFTLTISSLQSEDFAVYYCQQYNDWPPITFGQGTRLEIK
Reply: 0.101 µg/mL

Ask: State its EC50 for this binder: Anti-ZIKV #3 (Clone 270-12) (antibody, V domains shown) VH: QAQLEESGGDLVKPEGSLTLTCTASGFSFTDRHYMCWVRQAPGKGLEWIACVYPGSSGSTYYASWARGRFTISKTSSTTVTLRMTSLTAADTATYFCARSSYPDSSGYSYGMDLWGPGTLVTVSS VL: DIVMTQTPASVEAAVGGTVTIKCQASQDINSNLAWYQQKPGQRPKFLMYLTSKLASGVPSRFRGSGSGTQFTLTISDLECADAATYYCQTYYDISNYGYAFGGGTEVVVKG
Reply: 0.0144 µg/mL
